target: Trx-His6-MBD4 MBD (SPR) (Homo sapiens, UniProt O95243 80-148); assay: SPR; SPR running buffer: 10 mM HEPES pH 7.4, 50 mM NaCl, 3 mM MgCl2, 0.1 mM EDTA, 1 mM DTT, 0.1% BSA, 0.005% polysorbate 20 (samples prepared at pH 6.5); temperature not given; NMR buffer not given (low salt, up to 100 mM NaCl in titration); settings: protein: recombinant; tags: N-terminal thioredoxin and His6 fusion (modified pET32a), retained for SPR; label: 3' biotin on strand 1 (SPR only); blunt
Sequence (O95243 80-148): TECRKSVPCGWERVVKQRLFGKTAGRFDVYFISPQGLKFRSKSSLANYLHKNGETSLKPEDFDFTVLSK

{"columns": ["binder", "Kd"],
 "data": [
  ["mCpG (17 bp) (dsDNA, 5-methyl-C at strand 1 position 9 and strand 2 position 8) DNA 1: GAGGCGCTCGGCGGCAG DNA 2: CTGCCGCCGAGCGCCTC", "6.4 µM"]
]}

Data origin, for the record: paper PMC4176167
